assay: NCI Yeast Anticancer Drug Screen. Data for the sgs1 mgt1 strain (AID 161);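 further: 0% = growth of cultures given vehicle only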; conditions: S. cerevisiae sgs1 mgt1 strain, at 5.0 µM (retest, dose inferred, filed as 0.5), hits give high values
Compounds without any hit were thinned out: in the full panel of roughly 79,000, 15% have a hit.
# reported growth inhibition; entries follow

Molecule: C#CC(/C=C/Cl)(CC)OC(N)=O (stereo not drawn)
growth inhibition (%): 3
//
Molecule: COC(=O)C1c2c(C)cc3n2C(C=CC3)C1C(=O)OC (stereo not drawn)
growth inhibition (%): -6
//
Molecule: CC(C)=CCC/C(C)=C/CC/C(C)=C/Cc1c(O)c2ccccc2oc1=O
growth inhibition (%): 7

Sourced from PubChem BioAssay (NCI)
